Tested on: OVCAR-3
Assay: NCI tumour cell line growth inhibition, 48 h
Active and inactive are the calls of the source. No stated cut-off is given here; in the data, active = GI50 up to about 1.1 µM and inactive = higher.
value-type: GI50

Fill in: GI50 on OVCAR-3, entry COc1ccc(CC2c3cc(OC)c(OC)cc3CC[N+]2(C)C)cc1OC (stereo unspecified)
> 100 µM (inactive)

Fill in: GI50 on OVCAR-3, entry `COC(=O)/C=C1/OC(c2ccccc2)=C(C)C1=O`
20 µM (inactive)

Fill in: GI50 on OVCAR-3, entry Cc1ccc(SCC(CF)OCn2cc(F)c(=O)[nH]c2=O)cc1 (stereo unspecified)
> 100 µM (inactive)

Fill in: GI50 on OVCAR-3, entry `CCCCCC/C=C\CCCCCCCCCC1=C(CN2CCN(C)CC2)C(=O)C=C(OC)C1=O`
6.76 µM (inactive)

Fill in: GI50 on OVCAR-3, entry Fc1ccccc1C1CC(c2ccc3ccccc3c2)=Nc2ccccc2S1 (stereo unspecified)
> 100 µM (inactive)

Fill in: GI50 on OVCAR-3, entry `O=Cc1c(Cn2ccnc2)c2cc([N+](=O)[O-])ccc2n1Cc1ccccc1`
> 100 µM (inactive)

Fill in: GI50 on OVCAR-3, entry `CC(=O)Nc1ccc2nncnc2c1`
> 100 µM (inactive)

Fill in: GI50 on OVCAR-3, entry `Cc1cc(O)cc2oc(=O)c3c(O)cc(O)cc3c12`
23 µM (inactive)

Fill in: GI50 on OVCAR-3, entry `Cc1c(-c2nnc(-c3ccc(Cl)cc3)o2)c(=O)n(-c2ccccc2)n1C`
> 100 µM (inactive)

Fill in: GI50 on OVCAR-3, entry `O=C(c1ccccc1)C(C(=O)c1ccccc1)c1nc2ccccc2sc1=O`
> 25 µM (inactive)

Fill in: GI50 on OVCAR-3, entry `N#Cc1ccc(-c2nc3cc(Cl)ccc3[nH]2)cc1`
54.7 µM (inactive)
